- Tested on: RKO
- procedure_details: Cytotoxicity against human RKO cells assessed as reduction in cell viability incubated for 24 hrs by MTT assay
- Assay type: functional, cell-based
Cut-off 30 µM on IC50: below means Y, at or above means N.

Record excerpt, results attached:
{"input_smiles": "CCOC(=O)c1cn(CCCc2ccccc2)c2cc(Cl)ccc2c1=O", "assay_system": "RKO", "assigned_label": "Y"}
{"input_smiles": "CCN(CC)CCCNC(=O)c1cn(CCCc2ccccc2)c2cc(Cl)ccc2c1=O.Cl", "assay_system": "RKO", "assigned_label": "Y"}

Kindly review the next compound as well.
Task item: Strictly below 30 µM: is that where IC50 of `C=CCn1cc(C(=O)OCC)c(=O)c2ccc(Cl)cc21` sits?
Reply: N

* * *

- System: HepG2
- procedure_details: Cytotoxicity against human HepG2 cells assessed as reduction in cell viability incubated for 24 hrs by MTT assay
- Type: functional, cell-based
- test_conditions: HepG2, 24 h
IC50: recorded values
Output spec: scalar in µM, unitless text.

Guide cases for IC50, answers given:
{"input_smiles": "C=CCn1cc(C(=O)NCCN(CC)CC)c(=O)c2ccc(Cl)cc21.Cl", "readout_unit": "µM", "IC50": 19.1}
{"input_smiles": "CCOC(=O)c1cn(CC)c2cc(Cl)ccc2c1=O", "readout_unit": "µM", "IC50": 47.9}
{"input_smiles": "CCOC(=O)c1cn(Cc2ccccc2)c2cc(Cl)ccc2c1=O", "readout_unit": "µM", "IC50": 22.4}

Task item: Under HepG2: IC50 value of `CCOC(=O)c1cn(C)c2cc(Cl)ccc2c1=O` ?
Reply: 38

Task item: Under HepG2: IC50 value of `CCN(CC)CCCNC(=O)c1c[nH]c2cc(OC)ccc2c1=O.Cl` ?
Reply: 47.9

Task item: Under HepG2: IC50 value of `CCN(CC)CCNC(=O)c1cn(C)c2cc(Cl)ccc2c1=O.Cl` ?
Reply: 10.2

* * *

- Test system: HepG2
- procedure_details: Cytotoxicity against human HepG2 cells assessed as reduction in cell viability incubated for 24 hrs by MTT assay
- Assay type: functional, cell-based
- test_conditions: HepG2, 24 h
parameter_measured: pIC50
Quick note: pIC50 means taking -log10 of the concentration in moles per liter.

Guide cases for pIC50, answers given:
{"input_smiles": "CCN(CC)CCNC(=O)c1cn(CC)c2cc(Cl)ccc2c1=O.Cl", "pIC50": 5.02}
{"input_smiles": "C=CCn1cc(C(=O)OCC)c(=O)c2ccc(Cl)cc21", "pIC50": 4.36}
{"input_smiles": "CCN(CC)CCCNC(=O)c1c[nH]c2cc(Cl)ccc2c1=O.Cl", "pIC50": 4.55}

Task item: Requested read-out: pIC50. Entry: `CCCCn1cc(C(=O)NCCCN(CC)CC)c(=O)c2ccc(Cl)cc21.Cl`
Reply: 5.25

* * *

- Test system: HCT-116
- procedure_details: Cytotoxicity against human HCT116 cells assessed as reduction in cell viability incubated for 24 hrs by MTT assay
- Format: functional, cell-based
- test_conditions: HCT-116, 24 h
parameter_measured: pIC50
Quick note: pIC50 means taking -log10 of the concentration in moles per liter.

{"input_smiles": "CCN(CC)CCCNC(=O)c1c[nH]c2cc(Cl)ccc2c1=O.Cl", "parameter_measured": "pIC50", "experimental_value": 4.63}
{"input_smiles": "CCN(CC)CCCNC(=O)c1c[nH]c2cc(Br)ccc2c1=O.Cl", "parameter_measured": "pIC50", "experimental_value": 4.35}
{"input_smiles": "CCN(CC)CCCNC(=O)c1cn(CCCc2ccccc2)c2cc(Cl)ccc2c1=O.Cl", "parameter_measured": "pIC50", "experimental_value": 5.24}
{"input_smiles": "CCN(CC)CCCNC(=O)c1c[nH]c2cc(OC)ccc2c1=O.Cl", "parameter_measured": "pIC50", "experimental_value": 4.41}

Task item: Requested read-out: pIC50. Entry: `CCN(CC)CCNC(=O)c1cn(C)c2cc(Cl)ccc2c1=O.Cl`
Reply: 4.81
